pKi: −log10 of the molar value.
Hi, quick share: literature pKi data for UniProt:P25100, several sources combined.
Sequence (P25100 whole entry): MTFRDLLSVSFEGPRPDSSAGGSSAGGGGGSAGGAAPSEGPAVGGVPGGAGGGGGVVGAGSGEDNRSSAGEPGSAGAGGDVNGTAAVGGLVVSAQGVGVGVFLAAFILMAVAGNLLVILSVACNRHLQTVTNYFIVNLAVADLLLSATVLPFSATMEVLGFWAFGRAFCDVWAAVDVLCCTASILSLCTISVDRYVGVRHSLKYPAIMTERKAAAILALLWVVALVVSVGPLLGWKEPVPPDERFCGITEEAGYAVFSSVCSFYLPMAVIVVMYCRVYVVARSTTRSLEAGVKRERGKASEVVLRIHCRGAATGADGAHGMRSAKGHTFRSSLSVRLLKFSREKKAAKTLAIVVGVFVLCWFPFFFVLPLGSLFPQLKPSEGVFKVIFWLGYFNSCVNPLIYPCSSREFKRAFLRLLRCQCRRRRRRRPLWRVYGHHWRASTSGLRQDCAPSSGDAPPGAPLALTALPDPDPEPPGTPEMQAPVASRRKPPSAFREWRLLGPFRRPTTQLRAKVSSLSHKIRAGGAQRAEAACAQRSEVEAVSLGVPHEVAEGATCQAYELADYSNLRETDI

- Molecule: "Cc1ccc(C2(c3ccc(C)cc3)CC(=S)N(CCCN3CCC(C#N)(c4ccccc4Cl)CC3)C2=O)cc1"
  Relational operator: "<"
  pKi: 5.30
- Molecule: "COc1ccccc1OCCNCCN1C(=O)CC2(CCCC2)CC1=O"
  Relational operator: "<"
  pKi: 6.00
- Molecule: "COc1ccccc1N1CCN(Cc2ccc(CN3CCCCC3=O)s2)CC1"
  Relational operator: "="
  pKi: 7.92
- Molecule: "COC(=O)C1=C(C)NC(=O)N(C(=O)NCCCN2CCC(c3ccccc3)(c3ccccc3)CC2)C1c1ccc([N+](=O)[O-])cc1 (centres undefined)"
  Relational operator: "="
  pKi: 6.92
- Molecule: "CC(C)Oc1ccccc1N1CCN(CCCNC(=O)CN2CCCCC2=O)CC1"
  Relational operator: "="
  pKi: 7.10
- Molecule: "Cc1ccc(C(C(=O)NCCCN2CCC(c3ccccn3)CC2)c2ccc(C)cc2)cc1"
  Relational operator: "="
  pKi: 5.44
- Molecule: "CCCS(=O)(=O)c1ccccc1NCC1=NCCN1"
  Relational operator: "="
  pKi: 5.86
- Molecule: "COc1ccccc1N1CCN(C[C@H]2CO[C@@](CN3C(=O)CC4(CCCC4)CC3=O)(c3ccccc3)O2)CC1 (relative stereo)"
  Relational operator: "="
  pKi: 8.32
- Molecule: "CC(C)Oc1ccccc1N1CCN(CCOC(=O)CN2CCCCC2=O)CC1"
  Relational operator: "="
  pKi: 6.97
- Molecule: "COc1cc2nc(N3CCN(C(=O)C4COc5ccccc5O4)[C@@H]4CCCC[C@@H]43)nc(N)c2cc1OC (single isomer, unassigned)"
  Relational operator: "="
  pKi: 9.31
- Molecule: "COc1cc2nc(N3CCN(C(=O)c4ccc[nH]4)[C@H]4CCCC[C@H]43)nc(N)c2cc1OC"
  Relational operator: "="
  pKi: 8.82
- Molecule: "Cl.Cl.c1ccc2c(C3CCN(CCCN4CCCCC4)CC3)c[nH]c2c1"
  Relational operator: "="
  pKi: 7.16
- Molecule: "COc1cc2nc(N3CCN(C(=O)C4CCSS4)CC3)nc(N)c2cc1OC (centres undefined)"
  Relational operator: "="
  pKi: 9.31
- Molecule: "COc1ccccc1N1CCN(Cc2ccc(C=O)s2)CC1"
  Relational operator: "="
  pKi: 6.58
- Molecule: "COc1ccccc1N1CCN(C[C@H]2CCC(c3ccccc3)(c3ccccc3)[C@@H]2O)CC1"
  Relational operator: "="
  pKi: 7.17
- Molecule: "O=C1CC2(CCCC2)CC(=O)N1CCN1CCN(c2ccccc2[N+](=O)[O-])CC1"
  Relational operator: "="
  pKi: 7.81
- Molecule: "CNC(=O)[C@H]1O[C@@H](n2cnc3c(NC)nc(C#Cc4ccc(Cl)s4)nc32)[C@H](O)[C@@H]1O"
  Relational operator: "<"
  pKi: 5.00
- Molecule: "COc1ccc(S(=O)(=O)N[C@H]2CC[C@@H](N3CCC(c4ccccc4OCC(F)(F)F)CC3)CC2)cc1OC"
  Relational operator: "="
  pKi: 8.66
- Molecule: "COc1ccccc1N1CCN(CCn2c(=O)[nH]c3sccc3c2=O)CC1"
  Relational operator: "="
  pKi: 9.51
